TARGET_OF_ASSAY: T1, human PCSK9 (human, UniProt Q8NBP7 31-692)
T1 construct: also called hPCSK9; proprotein convertase subtilisin-kexin type 9
ASSAY_EXPLANATION: SPR (Biacore), Fab captured by anti-Fab IgG, 1:1 fit
EXPERIMENTAL_ENDPOINT: pKd
Lab note — pKd values are minus log10 of concentrations in M.

Quick one: pKd of AX211 Fab (Fab, V domains shown, Tested as purified Fab) VH: QVQLLESGGGLVQPGGSLRLSCKASGYTFSRQGFTWVRQAPGKGLEWIGWIDPGNGGTRYNEKFKGKATISRDNSKNTLYLQMNSLRAEDTAVYYCARYRVGYSLDYWGQGTLVTVSS VL: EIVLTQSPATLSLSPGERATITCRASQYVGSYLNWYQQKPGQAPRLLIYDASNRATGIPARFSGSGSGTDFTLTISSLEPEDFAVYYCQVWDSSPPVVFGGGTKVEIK ? 8.78

Quick one: pKd of AX213 Fab (Fab, V domains shown) VH: QVQLLESGGGLVQPGGSLRLSCKASGYTFSRYGINWVRQAPGKGLEWIGRIDPGNGGTRYNEKFKGKATISRDNSKNTLYLQMNSLRAEDTAVYYCARANDGYSFDYWGQGTLVTVSS VL: EIVLTQSPATLSLSPGERATITCRASQYVGSYLNWYQQKPGQAPRLLIYDASNRATGIPARFSGSGSGTDFTLTISSLEPEDFAVYYCQVWDSSPPVVFGGGTKVEIKR ? 8.86

Quick one: pKd of AX210 Fab (Fab, V domains shown, Tested as purified Fab) VH: QVQLLESGGGLVQPGGSLRLSCKASGYTFSSYSIYWVRQAPGKGLEWIGWIDPGNGGTRYNQKFQSKATISRDNSKNTLYLQMNSLRAEDTAVYYCARARVGYSLDYWGQGTLVTVSS VL: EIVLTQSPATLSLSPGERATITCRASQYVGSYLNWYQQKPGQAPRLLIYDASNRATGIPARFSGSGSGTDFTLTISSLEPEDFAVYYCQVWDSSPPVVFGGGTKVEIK ? 8.78

Now take the following binder into account.
Quick one: pKd of AX137 Fab (Fab, V domains shown, Tested as purified Fab) VH: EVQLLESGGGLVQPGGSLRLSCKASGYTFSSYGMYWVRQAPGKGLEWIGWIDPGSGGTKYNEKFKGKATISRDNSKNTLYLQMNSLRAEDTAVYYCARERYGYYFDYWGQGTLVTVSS VL: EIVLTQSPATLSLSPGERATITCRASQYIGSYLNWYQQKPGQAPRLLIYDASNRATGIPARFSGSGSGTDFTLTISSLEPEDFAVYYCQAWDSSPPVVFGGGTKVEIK ? 7.71
